- TEST SYSTEM: Nuclear factor erythroid 2-related factor 2 (Homo sapiens, UniProt Q16236)
- PROCEDURE TEXT: Induction of Nrf2 in human BEAS-2B cells assessed as increase in NQO1 protein level incubated for 48 hrs by MTT assay
ATTRIBUTE MEASURED: pEC50
Scale: negative log10 of molar concentration, which is what pEC50 denotes.

Short answer please: pEC50, Nuclear factor erythroid 2-related factor 2 (Homo sapiens, UniProt Q16236), entry CCCC1CCCCN1C(=O)c1cccc(-c2cccc(-n3ncc(C(=O)O)c3C3CC3c3cccnc3)c2)c1 (configuration not stated)
5.49

Short answer please: pEC50, Nuclear factor erythroid 2-related factor 2 (Homo sapiens, UniProt Q16236), entry "CCCC[C@@H]1CCCN1C(=O)[C@H]1CCC[C@@H](c2cccc(-n3ncc(C(=O)O)c3C3CC3)c2)C1"
5.37

Short answer please: pEC50, Nuclear factor erythroid 2-related factor 2 (Homo sapiens, UniProt Q16236), entry "CCC[C@@H]1CCCCN1C(=O)c1cccc(-c2cccc(-n3ncc(C(=O)O)c3C3CC3)c2)c1F"
5.46

Short answer please: pEC50, Nuclear factor erythroid 2-related factor 2 (Homo sapiens, UniProt Q16236), entry "CN(C)C(=O)c1cccc(-c2cccc(-n3ncc(C(=O)O)c3C3CC3)c2)c1"
5.85

Short answer please: pEC50, Nuclear factor erythroid 2-related factor 2 (Homo sapiens, UniProt Q16236), entry CCCCC1CCCN1C(=O)C1CCCC(c2cccc(-n3ncc(C(=O)O)c3C3CC3)c2)C1 (configuration not stated)
5.36

Short answer please: pEC50, Nuclear factor erythroid 2-related factor 2 (Homo sapiens, UniProt Q16236), entry "CCC[C@@H]1CCCCN1C(=O)c1cccc(-c2cccc(-n3ncc(C(=O)O)c3[C@H]3C[C@@H]3c3cn(C)nn3)c2)c1"
7.37

Short answer please: pEC50, Nuclear factor erythroid 2-related factor 2 (Homo sapiens, UniProt Q16236), entry "O=C(O)c1cnn(-c2cccc(-c3cccc(C(=O)N4CCCC5(CCCC5)C4)c3F)c2)c1C1CC1"
5.43

====

- TEST SYSTEM: Nuclear factor erythroid 2-related factor 2 (Homo sapiens)
- Sequence (Q16236 whole entry): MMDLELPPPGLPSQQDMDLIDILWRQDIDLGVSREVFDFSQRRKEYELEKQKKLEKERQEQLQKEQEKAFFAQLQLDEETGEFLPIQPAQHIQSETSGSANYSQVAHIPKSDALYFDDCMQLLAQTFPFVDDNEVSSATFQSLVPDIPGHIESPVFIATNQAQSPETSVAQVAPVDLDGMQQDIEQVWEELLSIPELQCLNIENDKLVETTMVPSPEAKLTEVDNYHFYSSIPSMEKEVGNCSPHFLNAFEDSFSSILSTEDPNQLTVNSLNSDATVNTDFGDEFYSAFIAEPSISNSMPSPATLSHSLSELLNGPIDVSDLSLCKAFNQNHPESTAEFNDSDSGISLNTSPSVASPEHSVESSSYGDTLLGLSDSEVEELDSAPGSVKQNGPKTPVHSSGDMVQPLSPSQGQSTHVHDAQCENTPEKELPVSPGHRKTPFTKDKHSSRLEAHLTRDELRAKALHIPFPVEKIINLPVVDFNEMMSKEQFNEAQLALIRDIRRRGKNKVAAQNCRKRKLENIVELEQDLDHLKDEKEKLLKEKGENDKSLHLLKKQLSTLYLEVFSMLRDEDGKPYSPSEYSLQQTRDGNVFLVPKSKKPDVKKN
- PROCEDURE TEXT: Induction of Nrf2 in human BEAS-2B cells assessed as increase in NQO1 protein level incubated for 48 hrs by MTT assay
ATTRIBUTE MEASURED: pEC50
Scale: negative log10 of molar concentration, which is what pEC50 denotes.

Short answer please: pEC50, Nuclear factor erythroid 2-related factor 2 (Homo sapiens), entry CCCC1COCCN1C(=O)c1cccc(-c2cccc(-n3ncc(C(=O)O)c3C3CC3)c2)c1F (stereo not drawn)
5.60

Short answer please: pEC50, Nuclear factor erythroid 2-related factor 2 (Homo sapiens), entry "CCC[C@H]1CCCCN1C(=O)c1cccc(-c2cccc(-n3ncc(C(=O)O)c3C3CC3)c2)c1F"
5.46

Short answer please: pEC50, Nuclear factor erythroid 2-related factor 2 (Homo sapiens), entry "CN(CC1CC1)C(=O)c1cccc(-c2cccc(-n3ncc(C(=O)O)c3C3CC3)c2)c1F"
5.66

Short answer please: pEC50, Nuclear factor erythroid 2-related factor 2 (Homo sapiens), entry CCCC1CCCCN1C(=O)c1cccc(-c2cccc(-n3ncc(C(=O)O)c3C3CC3c3cn(C)nn3)c2)c1 (stereo not drawn)
6.92

Short answer please: pEC50, Nuclear factor erythroid 2-related factor 2 (Homo sapiens), entry "O=C(O)c1cnn(-c2cccc([C@@H]3CCC[C@H](C(=O)N4CCCCC4)C3)c2)c1C1CC1"
5.57

Short answer please: pEC50, Nuclear factor erythroid 2-related factor 2 (Homo sapiens), entry "CN(C)C(=O)c1cccc(-c2cccc(-n3ncc(C(=O)O)c3C3CC3)c2)c1F"
5.89

Short answer please: pEC50, Nuclear factor erythroid 2-related factor 2 (Homo sapiens), entry "O=C(O)c1cnn(-c2cccc(-c3cccc(C(=O)N4CCCCC4)c3F)c2)c1C1CC1"
5.64

====

- TEST SYSTEM: Nuclear factor erythroid 2-related factor 2 (Homo sapiens, UniProt Q16236)
- Sequence (Q16236 whole entry): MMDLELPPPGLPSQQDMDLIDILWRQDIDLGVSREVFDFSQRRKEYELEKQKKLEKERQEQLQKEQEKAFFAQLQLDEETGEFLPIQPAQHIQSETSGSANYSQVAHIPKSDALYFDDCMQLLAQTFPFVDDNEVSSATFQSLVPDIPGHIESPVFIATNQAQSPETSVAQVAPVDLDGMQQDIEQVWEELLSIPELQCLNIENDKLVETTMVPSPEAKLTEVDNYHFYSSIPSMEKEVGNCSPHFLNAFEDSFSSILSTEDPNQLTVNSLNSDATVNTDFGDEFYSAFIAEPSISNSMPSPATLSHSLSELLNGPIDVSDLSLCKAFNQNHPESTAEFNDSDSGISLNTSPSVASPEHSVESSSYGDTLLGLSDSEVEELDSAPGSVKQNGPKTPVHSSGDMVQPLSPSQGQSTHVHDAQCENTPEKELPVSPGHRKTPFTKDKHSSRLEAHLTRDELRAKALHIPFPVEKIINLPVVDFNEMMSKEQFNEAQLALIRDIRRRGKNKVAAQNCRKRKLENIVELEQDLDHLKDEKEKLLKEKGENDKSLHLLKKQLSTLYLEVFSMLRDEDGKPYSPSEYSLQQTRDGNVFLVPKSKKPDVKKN
- PROCEDURE TEXT: Induction of Nrf2 in human BEAS-2B cells assessed as increase in NQO1 protein level incubated for 48 hrs by MTT assay
ATTRIBUTE MEASURED: EC50 (µM)
Reply with just the number (in µM).

Data request, read-out EC50, for CCCC1CCCCN1C(=O)c1cccc(-c2cccc(-n3ncc(C(=O)O)c3C3CC3c3cccnn3)c2)c1 (stereo not given)
2.8

Data request, read-out EC50, for "CN(C)C(=O)[C@H]1CCC[C@@H](c2cccc(-n3ncc(C(=O)O)c3C3CC3)c2)C1"
1.7

Data request, read-out EC50, for "O=C(O)c1cnn(-c2cccc(-c3cccc(C(=O)N(CC4CC4)CC4CC4)c3F)c2)c1C1CC1"
3.5

Data request, read-out EC50, for CCCC1CCCCN1C(=O)C1CCCC(c2cccc(-n3ncc(C(=O)O)c3C3CC3)c2)C1 (stereo not given)
4.1

Data request, read-out EC50, for CCCC1CCCCN1C(=O)c1cccc(-c2cccc(-n3ncc(C(=O)O)c3C3CC3c3ccccn3)c2)c1 (stereo not given)
3.8
